Reference source: ChEMBL document CHEMBL1142784

- Measurement target: Vascular endothelial growth factor receptor (Homo sapiens, UniProt P17948+P35916+P35968)
- Experiment: Inhibitory concentration against VEGFR(10 nM) by using homogeneous time-resolved fluorescence detection in pH 7.5
Readings of IC50 for the listed molecules
Field format: number, assumed µM, no unit text.

# annotated cases, reported IC50 shown
- Compound: "O=C(Nc1cccc(C(F)(F)F)c1)Nc1ncnc2nn3ccccc3c12"
  Recorded value: 0.251
- Compound: "O=C(Nc1ccc(F)cc1)Nc1ncnc2nn3ccccc3c12"
  Recorded value: 0.631
- Compound: "O=C(Nc1ccc(C(F)(F)F)cc1)Nc1ncnc2nn3ccccc3c12"
  Recorded value: 3.98
- Compound: "N#Cc1cccc(NC(=O)Nc2ncnc3nn4ccccc4c23)c1"
  Recorded value: 0.2

Please find the next molecule below.
Asked: Quickly give me recorded IC50 for "O=C(Nc1ccc(Br)cc1)Nc1ncnc2nn3ccccc3c12"
Given back: 3.98
